- measurement.target: ghrelin receptor (Homo sapiens)
- Sequence (Q92847 whole entry): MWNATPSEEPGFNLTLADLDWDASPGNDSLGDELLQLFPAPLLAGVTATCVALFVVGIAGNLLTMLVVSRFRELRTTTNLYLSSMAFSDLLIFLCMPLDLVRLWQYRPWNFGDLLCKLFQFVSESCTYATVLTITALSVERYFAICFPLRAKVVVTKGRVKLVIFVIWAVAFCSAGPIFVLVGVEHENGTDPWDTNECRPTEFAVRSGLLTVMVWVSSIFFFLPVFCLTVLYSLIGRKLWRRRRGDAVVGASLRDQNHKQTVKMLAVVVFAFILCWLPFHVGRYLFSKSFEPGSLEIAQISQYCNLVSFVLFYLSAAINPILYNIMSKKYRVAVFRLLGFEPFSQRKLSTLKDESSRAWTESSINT
- assay.name: Inositol trisphosphate turnover assay in COS-7 cells transfected with the ghrelin receptor
- Type: cell-based
- Parameters: expressed in transfected cells
- particulars: shift in efficacy compared to KwFwLL-NH2; inverse agonistic activity
measured.metric: x-fold (Emax) (x-fold)
Please respond with the number in x-fold and leave the unit unwritten.

Which x-fold (Emax) reading was recorded for the compound CC(C)C[C@H](NC(=O)[C@H](CC(C)C)NC(=O)[C@@H](Cc1c[nH]c2ccccc12)NC(=O)[C@H](Cc1ccccc1)NC(=O)[C@@H](Cc1c[nH]c2ccccc12)NC(=O)[C@@H](N)CCCCN)C(N)=O [Peptide 2, KwFwLL-NH2, reference compound] ? 1

# query: x-fold (Emax) of entry CC(C)C[C@H](NC(=O)[C@H](CC(C)C)NC(=O)[C@@H](Cc1c[nH]c2ccccc12)NC(=O)[C@H](Cc1ccccc1)NC(=O)[C@@H](Cc1ccc2ccccc2c1)NC(=O)[C@@H](N)CCCCN)C(N)=O [Peptide 6, K-(D-2-Nal)-FwLL-NH2] 1.8

Quick one: x-fold (Emax) for CC(C)C[C@H](NC(=O)[C@H](CC(C)C)NC(=O)[C@@H](Cc1c[nH]c2ccccc12)NC(=O)[C@H](Cc1ccccc1)NC(=O)[C@@H](Cc1ccccc1)NC(=O)[C@@H](N)CCCCN)C(N)=O [Peptide 9, K-(D-Phe)-FwLL-NH2] ? 1.7

Using the record for CC(C)C[C@H](NC(=O)[C@H](CC(C)C)NC(=O)[C@@H](Cc1c[nH]c2ccccc12)NC(=O)[C@H](Cc1ccccc1)NC(=O)[C@H](NC(=O)[C@@H](N)CCCCN)C(c1ccccc1)c1ccccc1)C(N)=O [Peptide 5, K-(D-Dip)-FwLL-NH2] , report its x-fold (Emax). 2.4
